Test system: A498 renal
Assay: NCI-60 one-dose screen, 48 h
Details: 10 µM unless noted
Procedure: Growth inhibition of the A498 human tumor cell line is measured as a screen for anti-cancer activity. Cells are grown in 96 well plates and exposed to the test compound for 48 hours. Compounds are tested at a single concentration, which is 10^-5 M for most compounds. The reported endpoint is percent growth (GI% or GIPRCNT), where numbers from 0 - 100% represent growth inhibition, and numbers from -100% - 0 represent cell death. For example, a value of 40 represents 60% growth inhibition. […]
The panel holds about 83,000 compounds, 20% with a hit somewhere; the sample as a whole holds those more often. Active and inactive are the calls of the source. Rule for the calls: active = growth percent below 10; inactive = the rest.
The categories you may choose from are active, inactive

Req: For O=C(NCc1ccccc1)C(Cl)Cl , which call appears in the assay record?
Resp: inactive

Req: // query: NC(=O)CC1C=CCC1 (configuration not stated)
Resp: inactive

Req: // query: COc1cc(OC)c(/C=C/C(=O)c2c(N)cc(OC)cc2OC)c(OC)c1
Resp: active

Req: // query: C=C(C)[C@@H]1CC[C@]2(C(N)=O)CC[C@]3(C)[C@H](CC[C@@H]4[C@@]5(C)C/C(=C/c6cccnc6)[C@H](O)C(C)(C)[C@@H]5CC[C@]43C)[C@@H]12
Resp: inactive

Req: // query: COc1cc2c(c(OC)c1)C1c3cc(OC)ccc3NC(=O)N1CC2 (configuration not stated)
Resp: inactive

Req: // query: COC(=O)[C@]1(C)CC[C@]2(C)CC[C@]3(C)C(=CC(=O)[C@@H]4[C@@]5(C)CCC(=O)NC(C)(C)[C@@H]5CC[C@]43C)[C@@H]2C1
Resp: active

Req: // query: CCOC(=O)c1nn(C2CCCCO2)c2ccc(NC(=O)Cn3nnc4ccccc43)cc12 (configuration not stated)
Resp: inactive

* * *

Test system: NCI-H322M lung
Assay: NCI-60 one-dose screen, 48 h
Conditions: 10 µM unless noted
This is part of a sample that, as a whole, favours compounds with a hit. Of some 83,000 tested, about 20% had one in any assay. Active and inactive are the calls of the source. How the source made its calls: active means growth percent below 10; inactive means the rest.
The categories you may choose from are YES (active), NO (inactive)

Req: For C=C(C)[C@@H]1CC[C@]2(C)[C@H](CC[C@@H]3[C@@H]([C@@](C)(O)CCC=C(C)C)CC[C@]32C)[C@@]1(C)CCC(=O)O , which call appears in the assay record?
Resp: YES

Req: // query: O=C(Oc1ccc(Cl)cc1[N+](=O)[O-])Oc1ccc(Cl)cc1[N+](=O)[O-]
Resp: NO

Req: // query: CN(C)CCCNc1nc(-c2cccc(C(Cl)(Cl)Cl)c2)nc(C(Cl)(Cl)Cl)n1
Resp: NO

Req: // query: CN(C)c1cc(NN=C(c2ccc(O)cc2)c2ccc(O)cc2)c([N+](=O)[O-])cc1[N+](=O)[O-]
Resp: NO

Req: // query: Cn1cc(-c2noc(-c3cn(C)c4ncccc34)n2)c2cc(Cl)ccc21
Resp: NO

Req: // query: Cc1cc(C)c(O)c(CNCCCNCc2cc(C)cc(C)c2O)c1
Resp: NO

Req: // query: O=C(N/N=C/c1c(Cl)cccc1Cl)c1cccc(Nc2ccnc(C(F)(F)F)c2)c1
Resp: NO

Req: // query: O=C(Nc1cc(F)cc2cccnc12)c1cnc(N2CCNCC2)cn1
Resp: NO

Req: // query: N#C/C(C(=O)c1ccccc1)=C1/C(=O)Nc2ccc(F)cc21
Resp: NO
